Assign protein stability index to each entry below.
B1: SPSB1 (parent)
chain: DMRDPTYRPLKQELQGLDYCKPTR

Variants of: B1
assay: protein stability index of a GFP-peptide fusion (GPS, HEK-293T) (PSI 1-6); higher = more stable;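 further: lentivirally expressed fusions sorted by FACS into six bins by GFP to DsRed ratio, PSI derived from sequencing read proportions per bin multiplied by bin number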
measurementConditions: c terminus: a fixed tail appended
One number for each entry.

• DMRDPTYCPLKQELQGLDYCKPTR [R8C] = 2.79

Dear colleague, could you send me protein stability index for each of the items below? Thanks.
1. SMRDPTYRPLKQELQGLDYCKPTR [D1S]
2. DCRDPTYRPLKQELQGLDYCKPTR [M2C]
3. DMRDPTYRPLKQELQGLDYCKPHR [T23H]
4. DMRDPTYRPLKQELQRLDYCKPTR [G16R]
5. DMRDPTYRPLKQELQNLDYCKPTR [G16N]
6. DMRDLTYRPLKQELQGLDYCKPTR [P5L]
7. DMRDPTYRPLKQELQGLNYCKPTR [D18N]

3.02
3.01
3.19
3.78
3.24
3.53
2.28
